- target: NP WT (Influenza A virus A/TW/12/2001 (H1N1))
- measurement_protocol: SPR
reported_endpoint: Kd (nM)

{"item_sequence": "UCCAAACUCCAAACUCCAAACUCCAAAC [(UCCAAAC)4 RNA]", "reported_endpoint": "Kd", "measured": 10.4}

----------
- target: NP WT (Influenza A virus A/TW/12/2001 (H1N1))
- measurement_protocol: SPR

{"item_sequence": "UCCAAACUCCAAACUCCAAACUCCAAAC [(UCCAAAC)4 RNA]", "Kd (nM)": 8.27}

From: paper PMC4768256
